assayedTarget: T1, Csb2 (Thioalkalivibrio sulfidiphilus HL-EbGr7, UniProt B8GLG2 1-516)
T1 sequence: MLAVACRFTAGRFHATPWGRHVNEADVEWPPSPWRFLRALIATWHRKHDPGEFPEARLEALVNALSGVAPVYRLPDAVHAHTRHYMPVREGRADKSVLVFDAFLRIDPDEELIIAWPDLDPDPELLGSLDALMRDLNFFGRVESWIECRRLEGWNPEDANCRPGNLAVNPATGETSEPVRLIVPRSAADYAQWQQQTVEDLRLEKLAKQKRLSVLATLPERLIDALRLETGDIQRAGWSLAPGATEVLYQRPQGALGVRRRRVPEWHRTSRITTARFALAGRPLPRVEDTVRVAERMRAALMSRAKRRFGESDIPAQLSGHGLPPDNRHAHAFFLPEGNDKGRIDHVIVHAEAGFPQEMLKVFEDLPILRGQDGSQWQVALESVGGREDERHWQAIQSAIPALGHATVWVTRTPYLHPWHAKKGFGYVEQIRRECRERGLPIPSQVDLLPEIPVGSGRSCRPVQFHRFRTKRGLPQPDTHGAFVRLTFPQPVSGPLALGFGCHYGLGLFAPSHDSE
assayProcedure: fluorescence anisotropy; 5 mM MgCl2, 1 mM EDTA; Anisotropy: 25 nM RNA, 50 mM NaCl, 1 mM DTT, 5 mM MgCl2, 1 mM EDTA, 0.1 U/ul RNase inhibitor, 37 C; EMSA/plasmid: 20 mM Tris-HCl, 50 mM NaCl, 1 mM DTT, 0.1 mg/ml BSA, 5 mM MgCl2, 1 mM EDTA, 37 C (30 min EMSA, 1 h plasmid)
experimentalConditions: protein: recombinant; tags: cloning described in pET-Duet and pEV5HisTEV; His8-TEV tag removed; label: 5'-6-FAM; hairpin
pKd: −log10 of the molar value.

binder	pKd
GUCAUCCGCGGCAUUUAGCCGCGGCCUC (structured_RNA) [3' hairpin RNA (28 nt)]	7.37
GUCAUCCGCGGCAUUUAGCCGCGGCCUCAUUGAAGC (structured_RNA) [CRISPR repeat RNA (36 nt)]	7.26
